Molecular target: T1, TNFR1 (Homo sapiens, UniProt P19438)
T1 chain: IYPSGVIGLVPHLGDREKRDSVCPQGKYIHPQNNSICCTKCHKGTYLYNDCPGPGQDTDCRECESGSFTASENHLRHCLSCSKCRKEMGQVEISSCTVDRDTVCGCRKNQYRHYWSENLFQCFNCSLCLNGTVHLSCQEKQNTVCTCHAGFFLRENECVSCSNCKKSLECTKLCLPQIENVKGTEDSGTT
Assay: yeast display SC50
Assay readout: apparent Kd (screen) (nM)

# Binder, Unit descriptor, apparent Kd (screen)
records = [
    ("D53R (designed binder) SMEEEVEKAAKEYEKKKKEAIEKHLEKLKAKDKEAAERFLKELEEAAKEYAKREAKTMSEEEAKRRAKKYKEKVLLSELSEEEQKEIKEAEEKLVRTILKYVEEAAK", "nM", 2.73),
]

[1] L94R (designed binder) SMEEEVEKAAKEYEKKKKEAIEKHLEKLKAKDKEAAERFLKELEEAAKEYAKDEAKTMSEEEAKRRAKKYKEKVLLSELSEEEQKEIKEAEEKRVRTILKYVEEAAK
[2] K48H (designed binder) SMEEEVEKAAKEYEKKKKEAIEKHLEKLKAKDKEAAERFLKELEEAAHEYAKDEAKTMSEEEAKRRAKKYKEKVLLSELSEEEQKEIKEAEEKLVRTILKYVEEAAK
[3] R96W (designed binder) SMEEEVEKAAKEYEKKKKEAIEKHLEKLKAKDKEAAERFLKELEEAAKEYAKDEAKTMSEEEAKRRAKKYKEKVLLSELSEEEQKEIKEAEEKLVWTILKYVEEAAK
Ascending by apparent Kd (screen), please: list the binders accordingly. Answer with the labels in sequence, matching the requested order.
2, 3, 1
